- System: Litomosoides carinii
- assay explanation: Antifilarial activity against Litomosoides carinii infections in the Jird at dose 3 mg/kg administered orally
- Type: functional
- run parameters: route oral
Quick reference for Reduction of live worms among some molecules
Numbers only; they are read as %.

The examples below pair each entry with its known result.
sample smiles	reported result
CCNCc1cc(Nc2cc(C(F)(F)F)nc(/N=C(\N)Nc3ccc(Cl)c(Cl)c3)n2)ccc1O	97
CN(C)Cc1cc(Nc2cc(C(F)(F)F)nc(/N=C(\N)Nc3ccc(C(=O)c4ccccc4)cc3)n2)ccc1O	-22
CC(C)CNCc1cc(Nc2cc(C(F)(F)F)nc(/N=C(\N)Nc3ccc(Cl)c(Cl)c3)n2)ccc1O	35
CCN(CC)Cc1cc(Nc2cc(C(F)(F)F)nc(/N=C(\N)Nc3ccc(OC)cc3)n2)ccc1O	2

Tell me the measured Reduction of live worms of CCOc1ccc(Nc2cc(C(F)(F)F)nc(/N=C(\N)Nc3ccc(Cl)c(Cl)c3)n2)cc1CN(CC)CC , please.
21

Note, next up: CN(C)Cc1cc(Nc2cc(C(F)(F)F)nc(/N=C(\N)Nc3ccc(C(F)(F)F)cc3)n2)ccc1O
54

Note, next up: CCN(CC)Cc1cc(Nc2cc(C(F)(F)F)nc(/N=C(\N)Nc3ccc(Cl)c(Cl)c3)n2)ccc1OCc1ccccc1
52

Note, next up: COc1ccc(Nc2cc(C(F)(F)F)nc(/N=C(\N)Nc3ccc(Cl)c(Cl)c3)n2)cc1CN(C)C
100

Note, next up: CCN(C)Cc1cc(Nc2cc(C(F)(F)F)nc(/N=C(\N)Nc3ccc(Cl)c(Cl)c3)n2)ccc1O
97
